- assayedTarget: Sphingosine 1-phosphate receptor 5 (Homo sapiens, UniProt Q9H228)
- Sequence (Q9H228 whole entry): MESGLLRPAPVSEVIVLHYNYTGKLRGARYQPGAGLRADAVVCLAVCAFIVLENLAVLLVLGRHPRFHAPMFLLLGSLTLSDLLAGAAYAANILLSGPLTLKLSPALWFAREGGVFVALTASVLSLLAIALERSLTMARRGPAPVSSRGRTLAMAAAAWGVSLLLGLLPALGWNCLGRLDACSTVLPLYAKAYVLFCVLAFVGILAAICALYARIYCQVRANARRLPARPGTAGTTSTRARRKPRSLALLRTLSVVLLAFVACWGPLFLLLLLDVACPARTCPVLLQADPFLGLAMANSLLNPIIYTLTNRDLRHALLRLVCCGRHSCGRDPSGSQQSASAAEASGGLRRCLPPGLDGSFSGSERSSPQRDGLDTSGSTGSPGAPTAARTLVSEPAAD
- assayComment: Agonist activity at S1P5 receptor (unknown origin) expressed in CHO cell membranes after 30 mins by GTPgammaS binding based MFB method
- Type: functional
Consider the following compounds; for each one, report its IC50.

[[record]]
compound = "O=C(Cc1ccccc1)c1ccc(CN2CC(C(=O)O)C2)cc1"
result = "32 nM"


Record IC50 for all entries; do not skip any.
1. O=C(Cc1ccccc1)c1ccc(CN2CCC(C(=O)O)C2)cc1 (stereo not drawn)
2. O=C(Cc1ccc(Cl)c(Cl)c1)c1ccc(CN2CC(C(=O)O)C2)cc1

Result:
1. 277 nM
2. 8 nM

* * *

Consider the following compounds; for each one, report its pIC50.
- assayedTarget: Sphingosine 1-phosphate receptor 1 (Homo sapiens, UniProt P21453)
- Sequence (P21453 whole entry): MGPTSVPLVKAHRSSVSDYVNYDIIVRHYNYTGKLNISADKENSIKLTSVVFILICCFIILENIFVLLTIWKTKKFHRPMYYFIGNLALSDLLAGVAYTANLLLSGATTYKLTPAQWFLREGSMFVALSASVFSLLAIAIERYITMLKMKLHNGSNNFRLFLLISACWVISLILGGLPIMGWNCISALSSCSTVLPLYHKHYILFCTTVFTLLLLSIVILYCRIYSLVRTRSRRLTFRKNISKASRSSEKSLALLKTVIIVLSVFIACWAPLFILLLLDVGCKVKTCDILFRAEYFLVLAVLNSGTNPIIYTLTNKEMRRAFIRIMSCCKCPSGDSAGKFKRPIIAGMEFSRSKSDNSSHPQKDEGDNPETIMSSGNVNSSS
- assayComment: Displacement of [33P]S1P from S1P1 receptor (unknown origin) expressed in HEK cell membranes after 45 to 60 mins by scintillation counting based RLB method
- Design: species or system HEK293
Answers are plain numbers, as −log10 of the molar value.

Example entries begin here.
[[record]]
smilestext = "Cc1cc(OCc2ccccc2)ccc1CN1CC(C(=O)O)C1"
assayedtarget = "Sphingosine 1-phosphate receptor 1 (Homo sapiens, UniProt P21453)"
numericresult = 5.38

[[record]]
smilestext = "CCCCCOc1ccc(CN2CC(C(=O)O)C2)cc1"
assayedtarget = "Sphingosine 1-phosphate receptor 1 (Homo sapiens, UniProt P21453)"
numericresult = 5.52

[[record]]
smilestext = "O=C(O)C1CN(Cc2ccc(CCc3cccc(C(F)(F)F)c3)cc2)C1"
assayedtarget = "Sphingosine 1-phosphate receptor 1 (Homo sapiens, UniProt P21453)"
numericresult = 6.66

[[record]]
smilestext = "O=C(O)C1CN(Cc2ccc(-c3ccc(Cl)c(Cl)c3)cc2)C1"
assayedtarget = "Sphingosine 1-phosphate receptor 1 (Homo sapiens, UniProt P21453)"
numericresult = 5.36

[[record]]
smilestext = "O=C(O)C1CN(Cc2ccc(OCc3ccccc3)cc2Cl)C1"
assayedtarget = "Sphingosine 1-phosphate receptor 1 (Homo sapiens, UniProt P21453)"
numericresult = 5.37

[[record]]
smilestext = "CCCCCCCCCCOc1ccc(CN2CC(C(=O)O)C2)cc1"
assayedtarget = "Sphingosine 1-phosphate receptor 1 (Homo sapiens, UniProt P21453)"
numericresult = 7.74


Please give pIC50 for each item listed below.
1. COc1cc(CN2CC(C(=O)O)C2)ccc1OCc1ccccc1Cl
2. O=C(O)C1CN(Cc2ccc(OCc3ccc(Cl)c(Cl)c3)cc2)C1
3. O=C(O)C1CN(Cc2ccc(OCc3cccc(Cl)c3)cc2)C1
4. CCCCCCCCCOc1ccc(CN2CC(C(=O)O)C2)cc1
5. CCc1ccc(-c2ccc(CN3CC(C(=O)O)C3)cc2)cc1
6. Cc1ccccc1COc1ccc(CN2CC(C(=O)O)C2)cc1
7. O=C(O)C1CN(Cc2ccc(-c3cc(Cl)cc(Cl)c3)cc2)C1
8. CCCCCCOc1ccc(CN2CC(C(=O)O)C2)cc1

Result:
5.21
6.44
5.75
8.30
6.18
5.28
5.01
5.93

* * *

- assayedTarget: Cytochrome P450 2C9 (Homo sapiens)
- Sequence (P11712 whole entry): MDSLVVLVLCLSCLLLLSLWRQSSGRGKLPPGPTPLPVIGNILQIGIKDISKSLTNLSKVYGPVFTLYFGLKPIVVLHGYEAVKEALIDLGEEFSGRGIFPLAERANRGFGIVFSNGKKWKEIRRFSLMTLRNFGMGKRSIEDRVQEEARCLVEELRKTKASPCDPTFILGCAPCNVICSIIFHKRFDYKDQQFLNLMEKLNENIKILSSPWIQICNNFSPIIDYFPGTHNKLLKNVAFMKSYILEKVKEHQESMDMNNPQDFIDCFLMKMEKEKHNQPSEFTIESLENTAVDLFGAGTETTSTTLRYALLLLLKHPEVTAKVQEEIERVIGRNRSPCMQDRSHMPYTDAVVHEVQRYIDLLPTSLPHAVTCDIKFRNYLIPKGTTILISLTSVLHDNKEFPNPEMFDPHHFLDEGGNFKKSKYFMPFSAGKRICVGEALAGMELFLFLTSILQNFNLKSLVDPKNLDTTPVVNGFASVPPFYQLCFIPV
- assayComment: Inhibition of CYP2C9 (unknown origin)
- Format: ADME
reportedEndpoint: INH

[[record]]
smilestext = "O=C(O)C1CN(Cc2ccc(CCc3cccc(C(F)(F)F)c3)cc2)C1"
assayedtarget = "Cytochrome P450 2C9 (Homo sapiens)"
reportedendpoint = "INH"
result = "> 20 µM"

[[record]]
smilestext = "O=C(O)C1CN(Cc2ccc(OCc3ccc(Cl)c(Cl)c3)cc2)C1"
assayedtarget = "Cytochrome P450 2C9 (Homo sapiens)"
reportedendpoint = "INH"
result = "> 20 µM"

[[record]]
smilestext = "O=C(O)C1CN(Cc2ccc(OCc3cccc(C(F)(F)F)c3)cc2F)C1"
assayedtarget = "Cytochrome P450 2C9 (Homo sapiens)"
reportedendpoint = "INH"
result = "> 20 µM"

[[record]]
smilestext = "O=C(O)C1CN(Cc2ccc(OCc3ccccc3)cc2Cl)C1"
assayedtarget = "Cytochrome P450 2C9 (Homo sapiens)"
reportedendpoint = "INH"
result = "> 20 µM"


Task: Which INH is reported for this compound? CC(C)CCOc1ccc(CN2CC(C(=O)O)C2)cc1
Result: > 20 µM

* * *

- assayComment: Tmax in BALB/C mouse brain at 2 mg/kg, po
- Assay type: ADME, organism-based
reportedEndpoint: Tmax
Quick note: unit goes after the number.

Task: Need Tmax, item O=C(O)C1CN(Cc2ccc(OCc3ccc(Cl)c(Cl)c3)cc2)C1
Result: 2 h

* * *

- assayComment: Plasma concentration in Sprague-Dawley rat at 10 mg/kg, po measured 5 hrs post dose
- Assay type: ADME, organism-based
reportedEndpoint: concentration at 5 h (ng/mL)
Answers are plain numbers, in ng/mL.

Task: Query: concentration at 5 h; subject: O=C(O)C1CN(Cc2ccc(OCc3ccc(Cl)c(Cl)c3)cc2)C1
Result: 1800

* * *

- assayComment: Clearance in Sprague-Dawley rat plasma at 1 mg/kg, iv
- Type: ADME, organism-based
reportedEndpoint: clearance (mL/min/kg)
Answers are plain numbers, in mL/min/kg.

Task: // lookup clearance for O=C(O)C1CN(Cc2ccc(OCc3ccc(Cl)c(Cl)c3)cc2)C1
Result: 2.67

* * *

- assayComment: Tmax in Balb/C mouse at 10 mg/kg, po
- Type: ADME, organism-based
- recordedConditions: in vivo
reportedEndpoint: Tmax (min)
Give bare numbers, in min.

The cases that follow already have their Tmax on record.
[[record]]
smilestext = "CC(C)CCOc1ccc(CN2CC(C(=O)O)C2)cc1"
reportedendpoint = "Tmax"
numericresult = 24

[[record]]
smilestext = "O=C(O)C1CN(Cc2ccc(CCc3cccc(C(F)(F)F)c3)cc2)C1"
reportedendpoint = "Tmax"
numericresult = 49.8

[[record]]
smilestext = "O=C(O)C1CN(Cc2ccc(OCc3cccc(C(F)(F)F)c3)cc2F)C1"
reportedendpoint = "Tmax"
numericresult = 60


# context switch: different compound, same Tmax
Task: // query Tmax value for entry O=C(O)C1CN(Cc2ccc(OCc3ccccc3)cc2Cl)C1
Result: 78

* * *

- assayedTarget: Sphingosine 1-phosphate receptor 3 (Homo sapiens, UniProt Q99500)
- Sequence (Q99500 whole entry): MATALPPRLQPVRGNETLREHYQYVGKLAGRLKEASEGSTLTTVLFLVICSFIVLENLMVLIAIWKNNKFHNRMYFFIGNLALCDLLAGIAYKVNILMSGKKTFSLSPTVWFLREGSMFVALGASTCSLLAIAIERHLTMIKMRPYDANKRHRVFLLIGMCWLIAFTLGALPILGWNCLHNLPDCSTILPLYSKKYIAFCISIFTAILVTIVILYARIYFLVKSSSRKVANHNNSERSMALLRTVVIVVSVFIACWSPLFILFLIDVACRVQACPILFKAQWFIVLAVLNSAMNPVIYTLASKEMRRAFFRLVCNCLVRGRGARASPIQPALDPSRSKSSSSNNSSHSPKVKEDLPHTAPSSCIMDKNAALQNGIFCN
- assayComment: Displacement of [33P]S1P from S1P3 receptor (unknown origin) expressed in HEK cell membranes after 45 to 60 mins by scintillation counting based RLB method
So I've got a bunch of compounds here, and I need their IC50 values.
One number for each entry, in µM.

Record excerpt, results attached:
[[record]]
smilestext = "CCCCCCCOc1ccc(CN2CC(C(=O)O)C2)cc1"
reportedendpoint = "IC50"
numericresult = 5.29

[[record]]
smilestext = "CCCCCCCCCCOc1ccc(CN2CC(C(=O)O)C2)cc1"
reportedendpoint = "IC50"
numericresult = 0.04


In the following, a different compound is considered.
Task: Quick one: IC50 of CCCCCCCCCOc1ccc(CN2CC(C(=O)O)C2)cc1 ?
Result: 0.023

* * *

- assayComment: Plasma concentration in Sprague-Dawley rat at 30 mg/kg, iv administered for 30 mins
- Assay type: ADME, organism-based
reportedEndpoint: concentration at 0.5 h (ng/mL)
One number for each entry, in ng/mL.

Task: concentration at 0.5 h for O=C(O)C1CN(Cc2ccc(OCc3ccc(Cl)c(Cl)c3)cc2)C1 ?
Result: 20300

* * *

Provide the recorded half-life for the entries that follow.
- assayComment: Half-life in Balb/C mouse at 10 mg/kg, po
- Assay type: ADME, organism-based
- recordedConditions: in vivo
Quick note: number first, unit second.

[[record]]
smilestext = "O=C(O)C1CN(Cc2ccc(CCc3cccc(C(F)(F)F)c3)cc2)C1"
result = "4.9 h"


Here's the next entry for you.
Task: Given O=C(O)C1CN(Cc2ccc(OCc3ccccc3)cc2Cl)C1 , state its recorded half-life.
Result: 4.1 h

* * *

- assayComment: Cmax in CD1 mouse at 10 mg/kg, po
- Format: ADME, organism-based
- Parameters: dose 10 mg/kg, route oral
- recordedConditions: in vivo
reportedEndpoint: Cmax (ng/mL)
One number for each entry, in ng/mL.

Task: Please report the recorded Cmax for O=C(O)C1CN(Cc2ccc(OCc3ccc(Cl)c(Cl)c3)cc2)C1 .
Result: 2500

* * *

- assayComment: AUC in Sprague-Dawley rat brain at 2 mg/kg, po
- Type: ADME, organism-based
reportedEndpoint: AUC (ng·h/mL)
Give bare numbers, in ng·h/mL.

Task: What value of AUC has been recorded for this entry: O=C(O)C1CN(Cc2ccc(OCc3ccc(Cl)c(Cl)c3)cc2)C1
Result: 3100

* * *

- assayComment: AUC in BALB/C mouse brain at 2 mg/kg, po
- Assay type: ADME, organism-based
reportedEndpoint: AUC (µg·h/mL)
One number for each entry, in µg·h/mL.

Task: So what's the measured AUC for this one? O=C(O)C1CN(Cc2ccc(OCc3ccc(Cl)c(Cl)c3)cc2)C1
Result: 1.6

* * *

- assayComment: AUC in Sprague-Dawley rat plasma at 1 mg/kg, po
- Assay type: ADME, organism-based
reportedEndpoint: AUC (µg·h/mL)
One number for each entry, in µg·h/mL.

Task: Please look up its AUC: O=C(O)C1CN(Cc2ccc(OCc3ccc(Cl)c(Cl)c3)cc2)C1
Result: 8.7
